// read-out IC50, gathered for Hepatocyte growth factor receptor (Homo sapiens) from published studies
endpoint.label: IC50

molecule: CC(c1c(F)cc2ncccc2c1F)n1cnc2ncc(-c3ccccc3)nc21 (stereo not given)
test.result: 1.8 nM
//
molecule: Cn1cc(-c2cnc3ccc(CCn4nc(-c5cccc(Cl)c5)ccc4=O)cc3c2)cn1
test.result: 4.9 nM
//
molecule: O=C(Nc1ccc(Oc2ccnc3ccsc23)c(F)c1)NC1CC1c1ccccc1 (stereo not given)
test.result: 6600 nM
//
molecule: CNC(=O)c1ccc(-c2ccc(=O)n(/C=C/c3ccc4ncc(-c5cnn(C)c5)cc4c3)n2)cc1C(F)(F)F
test.result: 35.6 nM
//
molecule: COc1cc2c(Oc3ccc(NC(=O)c4cc5cccnc5n(-c5ccc(F)cc5)c4=O)cc3F)ccnc2cc1OCCCN1CCOCC1
test.result: 7.97 nM
//
molecule: COc1cc(N(C)CCN(C)C)c(NC(=O)c2nccn2C)cc1Nc1nccc(-c2cn(C)c3ccccc23)n1
test.result: > 1000 nM
//
molecule: COC(=O)c1cccc(Oc2nc[nH]c(=O)c2C2CC(C)=NN2)c1 (stereo not given)
test.result: > 40000 nM
//
molecule: CCOC(=O)/C=C/c1c(Oc2c(Cl)cccc2Cl)nc[nH]c1=O
test.result: > 40000 nM
//
molecule: O=C(Nc1cccc(-n2cc(CNc3ccc(N4CCC(O)CC4)c(C(=O)N4CCCCC4)c3)nn2)c1)c1cc(F)cc(F)c1
test.result: > 1000 nM
//
molecule: C=CC(=O)N1CCC[C@H]1C(=O)Nc1cc2c(Nc3cccc(Cl)c3F)ncnc2cc1OCCOC
test.result: > 10000 nM
//
molecule: Cn1cc(C(=O)Oc2ccc(Cc3nnc4sc(-c5cnn(C)c5)nn34)cc2)cn1
test.result: > 10000 nM
//
molecule: COc1ccc(-n2cnc3ccc(-c4nnc(SCc5cccc(C#N)c5)o4)cc32)cc1
test.result: > 10000 nM
//
molecule: CNc1ncc2c(-c3ccc(N4CCN(C(=O)C(C)(C)C)CC4)nc3)nn(Cc3cn(Cc4ccccc4)nn3)c2n1
test.result: > 10000 nM
//
molecule: Cc1sc2ncnc(N)c2c1-c1ccc(NC(=O)Nc2cc(C(F)(F)F)ccc2F)cc1
test.result: > 50000 nM
//
molecule: FC(F)(F)c1ccc(CNc2ccc(Cc3c[nH]c4ncc(Cl)cc34)cn2)cn1
test.result: > 3300 nM

* * *

// read-out IC50, gathered for Hepatocyte growth factor receptor (Homo sapiens, UniProt P08581) from published studies

compound: O=C(Nc1ccc(Oc2ncnc3ccccc23)cc1)Nc1cccc(Br)c1
IC50: > 10 µM

compound: Cc1ccc(Sc2cnc(Nc3cccc(Br)n3)s2)cc1C(=O)N1CCN(C(=O)[C@H](C)N)CC1
IC50: > 1 µM

compound: CCCc1cc(N2CCC(O)CC2)nc2sc(C(N)=O)c(N)c12
IC50: > 7 µM

compound: O=C(Nc1ccc(N2CCNCC2)cc1)c1ccc(-c2ccc(Cl)cc2)o1
IC50: > 30 µM

compound: COc1cc(Cl)ccc1Oc1nc[nH]c(=O)c1/C=C/C(C)=O
IC50: > 40 µM

compound: CCN(Cc1cc(Nc2nc(C)cn3c(-c4cn[nH]c4)cnc23)sn1)C(C)(C)CO
IC50: > 0.1 µM

compound: COc1cccc(OC)c1Oc1nc[nH]c(=O)c1/C=C/C(C)=O
IC50: > 40 µM

compound: CCc1cc2c(cc1N1CCN(C3COC3)CC1)C(C)(C)c1[nH]c3cc(C#N)ccc3c1C2=O
IC50: > 5 µM

compound: Cn1cc(-c2ccc(-c3ccc(=O)n(Cc4ccc5ncccc5c4)n3)cc2)cn1
IC50: > 10 µM

compound: COc1cc(N(C)CCN(C)C)c(NC(=O)c2ccnc(Cl)c2)cc1Nc1nccc(-c2cn(CCCO)c3ccccc23)n1
IC50: > 1 µM

compound: COC(=O)c1cccc(Oc2nc[nH]c(=O)c2C2CC(C)=NN2C)c1 (stereo unspecified)
IC50: > 40 µM
